Please provide measured inhibition for the entries that follow.
PROCEDURE_SUMMARY: Antioxidant activity assessed as inhibition of photoreduction of nitro blue tetrazolium after 7 mins by SOD activity assay
Format: functional
Set-up: concentration or dose not given beside the values

Entry CC(=O)Oc1cccnc1SC12CC3CC(CC(C3)C1)C2 , inhibition reported as 16.8%

Query NC(=O)c1cccnc1SC12CC3CC(CC(C3)C1)C2 yields inhibition of 15.4%

Noted for Brc1cccnc1SC12CC3CC(CC(C3)C1)C2 : its inhibition reads 17.2%

Item: CCOc1cccnc1SC12CC3CC(CC(C3)C1)C2 | inhibition: 31.8%

Lab book: inhibition of N#Cc1cccnc1SC12CC3CC(CC(C3)C1)C2 noted as 17.3%

inhibition in this record for Brc1cncc(SC23CC4CC(CC(C4)C2)C3)c1 : 53.3%

Value of measured inhibition for the entry O=C(O)c1cccnc1SC12CC3CC(CC(C3)C1)C2 : 15.4%

Lab note: measured inhibition of Oc1ccc(SC23CC4CC(CC(C4)C2)C3)nc1 was 45.5%
